# Study target: T1, rHuman HGF R/c-MET/Fc Chimera, CF (R&D Systems Cat#358-MT/CF) (human, UniProt P08581 25-932)
# T1 construct: Bought recombinant protein; also called HGF R/Fc; hepatocyte growth factor receptor
# T1 sequence (P08581 25-932, change not shown): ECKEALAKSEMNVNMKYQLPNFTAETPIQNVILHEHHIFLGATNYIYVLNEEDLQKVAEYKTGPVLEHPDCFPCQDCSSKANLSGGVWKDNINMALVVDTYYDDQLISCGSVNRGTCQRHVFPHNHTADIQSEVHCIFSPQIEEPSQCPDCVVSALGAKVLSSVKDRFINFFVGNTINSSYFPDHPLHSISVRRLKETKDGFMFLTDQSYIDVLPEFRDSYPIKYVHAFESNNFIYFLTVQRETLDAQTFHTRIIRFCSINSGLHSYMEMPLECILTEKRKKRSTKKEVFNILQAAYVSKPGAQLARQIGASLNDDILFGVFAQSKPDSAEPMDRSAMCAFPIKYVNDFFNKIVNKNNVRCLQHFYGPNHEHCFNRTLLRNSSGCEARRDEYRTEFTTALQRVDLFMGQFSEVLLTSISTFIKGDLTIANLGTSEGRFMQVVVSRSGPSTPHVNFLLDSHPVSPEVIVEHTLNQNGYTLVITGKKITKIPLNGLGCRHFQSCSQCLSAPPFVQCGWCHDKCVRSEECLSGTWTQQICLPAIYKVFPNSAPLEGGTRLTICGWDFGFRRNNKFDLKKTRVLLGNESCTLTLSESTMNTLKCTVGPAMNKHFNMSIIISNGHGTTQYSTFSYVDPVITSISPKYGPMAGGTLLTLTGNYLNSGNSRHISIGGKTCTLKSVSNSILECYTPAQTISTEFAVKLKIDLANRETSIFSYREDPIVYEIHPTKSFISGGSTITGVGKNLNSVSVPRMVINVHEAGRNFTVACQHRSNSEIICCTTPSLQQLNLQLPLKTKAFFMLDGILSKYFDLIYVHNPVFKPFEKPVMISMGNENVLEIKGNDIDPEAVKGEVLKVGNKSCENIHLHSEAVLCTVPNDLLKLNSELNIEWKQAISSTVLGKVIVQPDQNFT
# Experiment notes: ECL multispot (MSD) binding assay, antigen spotted on plate;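 further: purified Fab incubated 1 h at 20 °C on antigen spots, detected with TAG-labelled antibody, electrochemiluminescence compared with each well's blank, signal-to-blank ratio ≥4 counted as hit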
Value kind: ECL signal

{"columns": ["Binder", "Value kind", "Observed measurement"],
 "data": [
  ["Fab VH1-46_IGHD6-6*01_IGHJ1*01 S102A/S103P/S104F/H111F (APFF) & L6_IGKJ1*01 S31P (Fab, V domains shown, Tested as Fab (CH1 with His6/Flag tags, kappa CL) made in E. coli; also called APFF / S31P) VH: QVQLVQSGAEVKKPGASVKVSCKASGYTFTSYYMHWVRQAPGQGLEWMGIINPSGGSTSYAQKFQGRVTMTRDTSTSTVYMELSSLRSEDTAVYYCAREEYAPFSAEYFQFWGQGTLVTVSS VL: EIVLTQSPATLSLSPGERATLSCRASQSVSPYLAWYQQKPGQAPRLLIYDASNRATGIPARFSGSGSGTDFTLTISSLEPEDFAVYYCQQRSNWPPWTFGQGTKVEIKR", "ECL signal", 431]
]}
